biological target: human Src enzyme (Homo sapiens); construct: purchased Carna Biosciences, Inc. 08-173; assay: Src enzyme inhibitory activity (time-resolved fluorometry, biotinylated peptide phosphorylation); format: biochemical; conditions: biotinylated peptide phosphorylation, read-out: SRC_IC50
Sequence (P12931 whole entry): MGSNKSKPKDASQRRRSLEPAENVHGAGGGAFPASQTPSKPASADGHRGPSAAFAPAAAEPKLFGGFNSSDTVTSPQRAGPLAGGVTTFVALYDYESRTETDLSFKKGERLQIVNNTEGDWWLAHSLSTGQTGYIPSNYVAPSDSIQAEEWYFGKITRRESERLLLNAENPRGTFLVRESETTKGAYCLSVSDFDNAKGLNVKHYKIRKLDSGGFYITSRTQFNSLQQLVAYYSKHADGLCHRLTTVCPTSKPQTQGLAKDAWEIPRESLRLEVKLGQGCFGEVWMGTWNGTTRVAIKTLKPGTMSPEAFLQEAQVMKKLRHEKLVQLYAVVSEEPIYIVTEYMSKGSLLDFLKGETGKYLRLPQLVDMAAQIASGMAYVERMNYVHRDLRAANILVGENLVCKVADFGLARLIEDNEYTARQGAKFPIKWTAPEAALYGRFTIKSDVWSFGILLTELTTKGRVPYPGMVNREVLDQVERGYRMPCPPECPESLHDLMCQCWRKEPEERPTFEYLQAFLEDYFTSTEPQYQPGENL
Observed property: IC50 (nM)

Cc1cc(Oc2ccccc2F)cc(F)c1-n1ncc(C(=O)c2cc3cc(OC(F)F)c(NC4CN(S(C)(=O)=O)C4)cc3[nH]2)c1N
53
Cc1cc(Oc2c(F)cccc2F)ncc1-n1ncc(C(=O)c2cc3cc(OC(F)F)c(NC4COC4)cc3[nH]2)c1N
22
Cc1cc(Oc2c(F)cccc2F)ncc1-n1ncc(C(=O)c2cc3cc(OCC(F)F)c(N4CCCC4=O)cc3[nH]2)c1N
13

a. Cc1cc(Oc2ccccc2F)cc(F)c1-n1ncc(C(=O)c2cc3cc(OCC(F)F)c(NC4COC4)cc3[nH]2)c1N
b. Cc1cc(Oc2c(F)cccc2F)ncc1-n1ncc(C(=O)c2cc3cc(OC(F)F)c(N4C(=O)C(C)(C)NC4=S)cc3[nH]2)c1N
Parameter check: reported IC50 is higher for which label, a or b ? # answer = label of selected item
b

----------
target: human Yes1 enzyme (Homo sapiens, UniProt P07947); construct: made in house; assay: Yes1 enzyme inhibitory activity (time-resolved fluorometry, biotinylated peptide phosphorylation); assay type: biochemical; details: biotinylated peptide phosphorylation, read-out: YES_IC50
Sequence (P07947 whole entry): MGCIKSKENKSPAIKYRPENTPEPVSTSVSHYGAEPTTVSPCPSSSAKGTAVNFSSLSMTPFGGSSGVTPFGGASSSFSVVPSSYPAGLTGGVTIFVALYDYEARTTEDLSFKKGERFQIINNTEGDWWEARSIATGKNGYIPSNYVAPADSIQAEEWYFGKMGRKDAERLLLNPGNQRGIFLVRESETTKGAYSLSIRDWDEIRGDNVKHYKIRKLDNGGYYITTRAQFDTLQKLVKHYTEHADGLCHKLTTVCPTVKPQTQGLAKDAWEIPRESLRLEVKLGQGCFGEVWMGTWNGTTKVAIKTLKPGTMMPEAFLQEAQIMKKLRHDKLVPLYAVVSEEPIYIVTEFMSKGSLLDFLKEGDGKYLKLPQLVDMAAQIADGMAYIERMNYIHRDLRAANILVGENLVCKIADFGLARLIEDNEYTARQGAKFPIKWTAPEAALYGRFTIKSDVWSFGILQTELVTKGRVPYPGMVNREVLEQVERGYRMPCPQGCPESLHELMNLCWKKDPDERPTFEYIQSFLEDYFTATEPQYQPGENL
Observed property: IC50 (nM)

// solved cases for IC50 follow
Cc1cc(Oc2ccccc2F)cc(F)c1-n1ncc(C(=O)c2cc3cc(NS(C)(=O)=O)c(F)cc3[nH]2)c1N
0.61
Cc1cc(Oc2ccccc2F)ccc1-n1ncc(C(=O)c2cc3cc(F)c(NS(=O)(=O)NC(C)(C)CO)cc3[nH]2)c1N
2.3

a. COc1cccc(S(=O)(=O)Nc2cc3[nH]c(C(=O)c4cnn(-c5cnc(Oc6ccccc6F)cc5C)c4N)cc3cc2OCC(F)F)c1
b. Cc1cc(Oc2ccccc2F)ncc1-n1ncc(C(=O)c2cc3cc(NS(C)(=O)=O)c(F)cc3[nH]2)c1N
c. Cc1cc(Oc2c(F)cccc2F)ncc1-n1ncc(C(=O)c2cc3cc(OCC(F)F)c(C4CCN(S(=O)(=O)C5CC5)CC4)cc3[nH]2)c1N
d. Cc1cc(Oc2ccccc2F)ccc1-n1ncc(C(=O)c2cc3cc(F)c(NS(=O)(=O)CC(=O)N4CCCC4)cc3[nH]2)c1N
rank_up(items): orders items by reported IC50 in ascending numerical order. Use the labels to give the ranking in the order requested.
b, d, a, c
(b: 0.56 nM, d: 1.5 nM, a: 5.6 nM, c: 11 nM)

----------
biological target: human Src enzyme (Homo sapiens); construct: purchased Carna Biosciences, Inc. 08-173; test: Src enzyme inhibitory activity (time-resolved fluorometry, biotinylated peptide phosphorylation); assay type: biochemical; conditions: read-out: SRC_IC50
pIC50: −log10 of the molar value.
Observed property: pIC50

// solved cases for pIC50 follow
Cc1cc(Oc2c(F)cccc2F)ncc1-n1ncc(C(=O)c2cc3cc(OC(F)F)c(-n4c(C)cc(=O)[nH]c4=O)cc3[nH]2)c1N
7.44
Cc1cc(Oc2ccccc2F)ccc1-n1ncc(C(=O)c2cc3cc(OCC(F)F)c(N4C(=O)[C@@H]5C[C@H](NS(=O)(=O)c6ccc7ccccc7c6)CN5C4=O)cc3[nH]2)c1N
7.06
Cc1cc(Oc2c(F)cccc2F)ncc1-n1ncc(C(=O)c2cc3cc(F)c(N4C(=O)NC5(CCCCC5)C4=O)cc3[nH]2)c1N
6.25

a. Cc1cc(Oc2ccccc2F)ccc1-n1ncc(C(=O)c2cc3cc(OCC(F)F)c(N4C(=O)NC5(CCN(C6COC6)CC5)C4=O)cc3[nH]2)c1N
b. COc1ccc(Cl)c(S(=O)(=O)Nc2cc3[nH]c(C(=O)c4cnn(-c5ccc(Oc6ccccc6F)cc5C)c4N)cc3cc2OCC(F)F)c1
c. Cc1cc(Oc2ccccc2F)ccc1-n1ncc(C(=O)c2cc3cc(OCC(F)F)c(N4C(=O)[C@@H]5C[C@H](NC(=O)OCc6ccccc6)CN5C4=O)cc3[nH]2)c1N
Kindly order the items shown according to pIC50, from the highest value down. Use the labels to give the ranking in the order requested.
a, c, b
(a: 8.11, c: 7.48, b: 6.48)

I. Cc1cc(Oc2ccccc2F)ccc1-n1ncc(C(=O)c2cc3cc(F)c(N4C(=O)NC5(COC5)C4=O)cc3[nH]2)c1N
II. Cc1cc2cc(C(=O)c3cnn(-c4cnc(Oc5ccccc5F)cc4C)c3N)[nH]c2cc1NS(=O)(=O)CC(=O)NC(C)C
III. Cc1cc(Oc2ccccc2F)ccc1-n1ncc(C(=O)c2cc3cc(OCC(F)F)c(N4C(=O)NC5(CCNC5)C4=O)cc3[nH]2)c1N (stereo not drawn)
Kindly order the items shown according to pIC50, from the highest value down. Use the labels to give the ranking in the order requested.
III, I, II

P. Cc1cc2cc(C(=O)c3cnn(-c4cnc(Oc5ccccc5F)cc4C)c3N)[nH]c2cc1NS(=O)(=O)CC(=O)N1CCCC1
Q. Cc1cc(Oc2cccc(F)c2)ccc1-n1ncc(C(=O)c2cc3cc(C4CCN(C(C)C)CC4)c(F)cc3[nH]2)c1N
Parameter check: reported pIC50 is higher for which label, P or Q ? # answer = label of selected item
Q
